# procedure_summary: chemical genetic growth profiling, strain panel (AID 1159580);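 note: tested at 20 µM; growth read once vehicle control cultures reached saturation at 30 °C; 1 = growth at the plate median or of vehicle wells; lower values mean less growth of the strain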
# measurement_setup: S. cerevisiae deletion strains, growth OD, locus YPR025C, strain CCL1, hits give low values
Among all 5,500 compounds or so, about 2,000 (36%) were called active. Another 18% or so got no clear call; they are omitted. The list shows a part of the results.
Documented normalized growth across a set of compounds
observation_type: normalized growth

> print(dat)
                                   compound  observed.measurement
1  CC(C)c1ccc(NCC(O)CSc2ccccc2)cc1 (configuration not stated)                 0.957
2     CC(C)c1ccc(N2C=Nc3ccc(C(C)C)cc3C2)cc1                     1
3  Cc1cc(Br)ccc1-n1c(Sc2c([N+](=O)[O-])cc(C(F)(F)F)cc2[N+](=O)[O-])nc2ccccc2c1=O                 0.983
4  O=C1CSC(c2cccnc2)N1c1ccc(Cl)cc1Cl (configuration not stated)                 0.984
5  O=[N+]([O-])c1cc(Br)cnc1Sc1nnc(SCC2CC2)s1                  0.95
6  CCOC(=O)/C(=N/Nc1c(Cl)cccc1Cl)c1csc(N)n1                 0.976
7   O=c1c(Cl)c(-n2cccn2)cnn1-c1ccc(Cl)cc1Cl                 0.947

----------
# procedure_summary: chemical genetic growth profiling, strain panel (AID 1159580);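 note: tested at 20 µM; growth read once vehicle control cultures reached saturation at 30 °C; 1 = growth at the plate median or of vehicle wells; lower values mean less growth of the strain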
# measurement_setup: S. cerevisiae deletion strains, growth OD, locus YGR078C, strain PAC10
In all, about 5,500 compounds went through this assay and about 2,000 (36%) were called active. Not shown: some 18% with an inconclusive outcome. No stated cut-off is given here; in the data, active means normalized growth mostly below about 0.91 (no sharp cut-off); inconclusive means no clear call, values can overlap the other calls; inactive means mostly above about 0.92. This is one part of the list.
Possible outcomes: active, inactive

> print(dat)
                                    molecule     class
 1      C=C(CC)C(=O)c1ccc(OCC(=O)O)c(Cl)c1Cl  inactive
 2  CC1C(c2ccccc2)OCCN1CN1C(=O)c2ccccc2C1=O (stereo unspecified)  inactive
 3  C=CC(C1=CC(=O)C=CC1=O)c1ccccc1 (stereo unspecified)    active
 4           COc1cc(CNC(=O)CCCCCCC(C)C)ccc1O  inactive
 5  C=CC(C1=CC(=O)C(OC)=CC1=O)c1ccc(OC)cc1 (stereo unspecified)  inactive
 6  CCCC(C)C1(CC)C(=O)NC(=O)NC1=O (stereo unspecified)  inactive
 7                     CCCc1occc(=O)c1/C=C/O  inactive
 8  CCCC[C@@]1(C2CCCC2)Cc2cc(OCC(=O)O)c(Cl)c(Cl)c2C1=O  inactive
 9  COc1cc2c(c(OC)c1OC)-c1ccc(OC)c(=O)cc1[C@@H](NC(C)=O)CC2  inactive
10    OCC1NCC(O)C(O)C1O (stereo unspecified)  inactive
11                                  C1CNCCN1  inactive
12  C=CC(C1=CC(=O)C(OC)=CC1=O)c1ccc(O)cc1 (stereo unspecified)  inactive
13  CCn1nc(C)c(Br)c1-c1nc(-c2ccc(C(F)(F)F)cc2)no1  inactive
14          c1ccc2c(c1)cc1ccc3cccc4ccc2c1c34  inactive
15                        CN1C2CCC1CC(=NO)C2  inactive
16  C=C[C@@H](C1=CC(=O)C(OC)=C(OC)C1=O)c1ccccc1    active
17         CC[N+](CC)(CC)CC(=O)Nc1c(C)cccc1C  inactive
18            Clc1cc(Cl)c(Cl)c(-n2cccc2)c1Cl    active
19                       CCCCCCNC(=O)NCCCCCC  inactive
20  N[C@@H](CCC(=O)N[C@H](CSN=O)C(=O)NCC(=O)O)C(=O)O  inactive
21  C=CCC1(C(C)CCC)C(=O)N=C(S)NC1=O (stereo unspecified)  inactive
22                    CCCCNC(=O)NCCSCc1ccco1  inactive
23             CCCc1cc(Br)c(-n2cccc2)c(Br)c1  inactive
24                  Clc1cc(Cl)cc(-n2cccc2)c1  inactive
25  CC(C)N(Cc1ccc(N(C)C)cc1)S(=O)(=O)c1cc(Cl)c(Cl)cc1Cl  inactive
26  C[C@H]1[C@H]2CCC3C4CC=C5C[C@@H](N(C)C)CC[C@]5(C)C4CC[C@@]32CN1C (stereo partly specified)  inactive

meta.source: PubChem BioAssay AID1159580
